target: FIH (Homo sapiens, UniProt Q9NWT6); construct: made in house; assay: FIH assay: decarboxylation of radiolabelled 2OG stimulated by substrate; assay type: biochemical; settings: ankyrin peptide substrates; CAD standard peptide = 100
Sequence (Q9NWT6 whole entry): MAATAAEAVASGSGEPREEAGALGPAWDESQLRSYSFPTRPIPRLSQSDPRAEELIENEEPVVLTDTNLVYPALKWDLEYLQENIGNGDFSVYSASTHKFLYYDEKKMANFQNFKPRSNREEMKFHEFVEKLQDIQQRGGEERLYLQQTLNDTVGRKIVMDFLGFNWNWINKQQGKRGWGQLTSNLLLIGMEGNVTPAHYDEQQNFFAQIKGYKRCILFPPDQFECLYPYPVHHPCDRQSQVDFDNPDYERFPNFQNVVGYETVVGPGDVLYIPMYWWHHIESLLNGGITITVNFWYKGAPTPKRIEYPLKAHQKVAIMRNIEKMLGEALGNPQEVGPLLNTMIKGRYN
OUTCOME_MEASURE: Activity + FIH (relative to synthetic HIF1alphaCAD)

SUBSTANCE	QUANTITATIVE_RESULT
Gankyrin/p28-II: fragment of Gankyrin/p28-II, RDEIVKALLGKGAQVNAVNQ (SEQ ID NO: 17) (listed as Homo sapiens)	116
M110: fragment of M110, YTEVLKLLIQAGYDVNIKDY (SEQ ID NO: 19) (listed as Homo sapiens)	122
Tankyrase 1/2: fragment of Tankyrase, NLEVAEYLLEHGADVNAQDK (SEQ ID NO: 15) (listed as Homo sapiens)	107
GABPbeta: fragment of GABPbeta, HASIVEVLLKHGADVNAKDM (SEQ ID NO: 14) (listed as Homo sapiens)	107
CAD: HIF C-terminal transactivation domain standard peptide DESGLPQLTSYDCEVNAPI (SEQ ID NO: 11) (listed as Homo sapiens) [reference compound]	100
p19-INK-4d: fragment of P19-INK4d, FLDTLKVLVEHGADVNVPDG (SEQ ID NO: 13) (listed as Homo sapiens)	124
2-5A-d-R: fragment of 2-5A-d-R, VEVLKILLDEMGADVNACDN (SEQ ID NO: 16) (listed as Homo sapiens)	27.8
Myotrophin: fragment of Myotrophin, QLEILEFLLLKGADINAPDK (SEQ ID NO: 18) (listed as Homo sapiens)	154
FGIF: fragment of FGIF, NTRVASFLLQHDADINAQTK (SEQ ID NO: 20) (listed as Homo sapiens)	168

###

// reported % activity relative to GST HIF-1α 786-826 for each item listed
molecular target: FIH (Homo sapiens, UniProt Q9NWT6); construct: made in house; assay: FIH assay: decarboxylation of radiolabelled 2OG stimulated by substrate; type: biochemical; settings: substrate incubated with FIH, ascorbate, 2OG, Fe, catalase, 50 mM Tris-HCl pH 7.5, 37° C., 20 minutes
OUTCOME_MEASURE: % activity relative to GST HIF-1α 786-826

SUBSTANCE	RESULT
CAD: HIF C-terminal transactivation domain standard peptide DESGLPQLTSYDCEVNAPI (SEQ ID NO: 11) (listed as Homo sapiens) [reference compound]	75%
FEM-1 21 mer: fragment of FEM-1, NALVTKLLLDCGAEVNAVDNE (SEQ ID NO: 3) (listed as Homo sapiens)	89%
p105 21 mer: fragment of p105, SLPCLLLLVAAGADVNAQEQK (SEQ ID NO: 2) (listed as Homo sapiens)	100%
IkBa 21 mer: fragment of IκB-α, YLGIVELLVSLGADVNAQEPC (SEQ ID NO: 1) (listed as Homo sapiens)	111%
